Origin of values: patent US20260184782A1

Below is a list of entries, each paired with its recorded Kd value.
Molecular target: T1, recombinant human TIGIT (human, UniProt Q495A1 22-141, limits assumed)
T1 construct: recombinant human TIGIT used in Carterra SPR; also called hTIGIT
T1 sequence (looked up): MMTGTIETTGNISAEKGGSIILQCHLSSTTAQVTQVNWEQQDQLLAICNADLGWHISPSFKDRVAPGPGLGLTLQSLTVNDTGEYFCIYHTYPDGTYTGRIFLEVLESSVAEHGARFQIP
Test: SPR Carterra, average

| BINDER | Kd |
| --- | --- |
| TIGIT-SC30 (Fc fusion, VHH-Fc fusion in assay) VHH: EVQLVESGGGLVQPGGSLRLSCAASGRSFSSDWIGWFRQAPGKERELVAAIDWSGGSALYADSVKGRFTISADNSKNTAYLQMNSLKPEDTAVYYCARVNWNNVGWFDPWGQGTLVTVSS | 67.3 nM |
| TIGIT-SC64 (Fc fusion, VHH-Fc fusion in assay) VHH: EVQLVESGGGLVQPGGSLRLSCAASGFAFSNFGMGWFRQAPGKERELVSAIGWSGASTYYADSVKGRFTISADNSKNTAYLQMNSLKPEDTAVYYCARRGRTIPFDYWGQGTLVTVSS | 19.6 nM |
| TIGIT-SC154 (Fc fusion, VHH-Fc fusion in assay) VHH: EVQLVESGGGLVQPGGSLRLSCAASGFAFSSDWMGWFRQAPGKEREWVASVLRGGYTWYADSVKGRFTISADNSKNTAYLQMNSLKPEDTAVYYCAGDYRGFEMAFDPWGQGTLVTVSS | 22.5 nM |
| TIGIT-SC53 (Fc fusion, VHH-Fc fusion in assay) VHH: EVQLVESGGGLVQPGGSLRLSCAASGFTFSPSWMGWFRQAPGKEREWVASVLRGGYTWYADSVKGRFTISADNSKNTAYLQMNSLKPEDTAVYYCARESTIVGAIDSWGQGTLVTVSS | 55.4 nM |
| TIGIT-SC27 (Fc fusion, VHH-Fc fusion in assay) VHH: EVQLVESGGGLVQPGGSLRLSCAASGLTFSNYVMGWFRQAPGKEREVVAGILSDGRELYADSVKGRFTISADNSKNTAYLQMNSLKPEDTAVYYCARDVFGEGHWGQGTLVTVSS | 80.6 nM |
| TIGIT-SC3 (Fc fusion, VHH-Fc fusion in assay) VHH: EVQLVESGGGLVQPGGSLRLSCAASGTFQRINAMGWFRQAPGKEREFVSTINWSGSNTYYADSVKGRFTISADNSKNTAYLQMNSLKPEDTAVYYCASSYSSSSGLGDIWGQGTLVTVSS | ≤ 0.00502 nM |
| TIGIT-SC188 (Fc fusion, VHH-Fc fusion in assay) VHH: EVQLVESGGGLVQPGGSLRLSCAASGNTFSGGFMGWFRQAPGKEREWVASVLRGGYTWYADSVKGRFTISADNSKNTAYLQMNSLKPEDTAVYYCTTDSLPGWGQGTLVTVSS | 77.1 nM |
